Experiment: Hypnonarcotic activity (loss of righting reflex)
Parameters: species or system mice (STD-ddY strain, male)
Details: mouse, in vivo, po
PARAMETER_MEASURED: TD50 (mg/kg)
Dear colleague, please return just the value in mg/kg, with no unit written.

[ask] Identify TD50 associated with the compound NS(=O)(=O)Cc1noc2ccccc12
[reply] 934

* * *

Assay: Hypnonarcotic activity (loss of righting reflex)
Design: species or system mice (STD-ddY strain, male)
Settings: mouse, in vivo, po; mice, p.o.; righting reflex lost for 60 minutes or more; Probit method; read-out: Hypnonarcotic activity HD50 (dose which produced hypnonarcotic effect in 50% of animals)
PARAMETER_MEASURED: TD50 (mg/kg)
Dear colleague, please return just the value in mg/kg, with no unit written.

[ask] Identify TD50 associated with the compound NC(=O)N1c2ccccc2C=Cc2ccccc21 [Carbamazepine]
[reply] 345

* * *

Test: in vivo
Type: in vivo
Details: mouse, in vivo, po; mice, p.o.; mortality observed for 7 days; Probit method; read-out: Acute toxicity LD50
Recorded LD50 at 168 h by entry
Dear colleague, please return just the value in mg/kg, with no unit written.

CCC1(c2ccccc2)C(=O)NC(=O)NC1=O [Phenobarbital] :: 201

Okay, next one:
[ask] Identify LD50 at 168 h associated with the compound NS(=O)(=O)Cc1noc2ccccc12 [The active compound of the invention, 3-Sulfamoylmethyl-1,2-benzisoxazole]
[reply] 1890

Every entry's value here was drawn from patent US5128354A.
